Tested on: NCI/ADR-RES ovarian
assay-name: NCI tumour cell line growth inhibition, 48 h
experimental-readout: TGI

{"compound": "CCC12CCCN3CCc4c(n(c5ccccc45)C(O)(C(=O)OC)C1)C32 (configuration not stated)", "reported": "> 100 µM"}
{"compound": "CC(=O)c1sc2c(c1OC(=O)c1ccc(Cl)cc1)c(=O)n(-c1ccccc1)c(=S)n2-c1ccccc1", "reported": "23 µM"}
{"compound": "O=C(N=Nc1c(O)[nH]c2c(Cl)cc(Cl)cc12)c1ccccc1O", "reported": "26.3 µM"}
{"compound": "NN/C(=N\\S(=O)(=O)c1cc2ccccc2o1)Nc1ccc(Cl)cc1", "reported": "> 100 µM"}
{"compound": "COc1ccccc1N1C(=O)/C(=C\\c2cc(OC)c(OC)c(OC)c2)SC1c1ccccc1 (configuration not stated)", "reported": "> 100 µM"}
{"compound": "COc1cc(C=O)cc(/C=N/N=C/c2ccccc2O)c1O", "reported": "> 100 µM"}

Consider now this further compound.
[Q] Lab note: NCI/ADR-RES ovarian assay, enter TGI for CC1(C)SC2C(NC(=O)C(C(=O)O)c3ccccc3)C(=O)N2C1C(=O)O (configuration not stated) here
[A] > 100 µM

---

Test system: BT-549 breast
assay-name: NCI tumour cell line growth inhibition, 48 h
GI50 values, listed per item

Some entries whose results are on file:
{"compound": "Cn1ncc2c(Sc3ccc(Cl)cc3)ncnc21", "GI50": "27.3 µM"}
{"compound": "CCCC(c1nnnn1C1CCCCC1)N1CCN(C(=O)c2ccco2)CC1 (stereo unspecified)", "GI50": "> 100 µM"}
{"compound": "C=C(C)C(=O)Oc1ccc(N=Nc2ccc(C)cc2)ccc1=O", "GI50": "6.63 µM"}
{"compound": "COc1ccc(/C=C/c2nnc(/C=C/c3ccc(OC)c(OC)c3)o2)cc1OC", "GI50": "2.9 µM"}
{"compound": "CC(=O)c1nc2ccccc2n1CCN1CCN(C)CC1", "GI50": "6.21 µM"}

[Q] Please supply the value of reported GI50 for the item NCCOc1ncccc1/C=C1\c2ccccc2-c2ccc(F)cc21
[A] 1.64 µM

[Q] Supply measured GI50 of CCN(Cc1ccncc1)c1ccc(CO)c(Cl)c1 in your reply.
[A] > 100 µM

[Q] # return recorded GI50 for entry COc1ccc(CCn2c3c(c4c(O)cccc42)C(=O)c2ccccc2-3)cc1OC
[A] 6.57 µM

---

Tested on: NCI-H522 lung
assay-name: NCI tumour cell line growth inhibition, 48 h
experimental-readout: TGI

[Q] Return TGI (reported value) for this compound: NS(=O)(=O)N(c1cc(C(F)(F)F)cc(C(F)(F)F)c1)C1CCN(Cc2ccc(F)cc2)CC1
[A] 13.4 µM

[Q] Give the measured TGI for CCOC(=O)/C=C(\C(=O)OCC)n1ccc(=O)n(Cc2cnnn2COCCOC(C)=O)c1=O
[A] 3.53 µM

[Q] Please give measured TGI of the following entry: CCC/C=C/C=C/C(=O)OC1C(C)C2(O)C3C=C(C)C(=O)C3CC(COC(C)=O)=CC2C2C(C)(C)C12OC(=O)C(C)C (stereo not drawn)
[A] 26.8 µM

[Q] For the compound NC1(C(=O)O)CCCC1C(=O)O (stereo not drawn) , give its measured TGI value.
[A] > 100 µM

[Q] Dear colleague, please send me the reported TGI for COc1cc(/C=N\O)cc(/C=N/O)c1O when you can.
[A] > 100 µM

[Q] Quickly give me recorded TGI for COc1ccc(NC(=S)N/N=C/c2cccc(C)n2)cc1
[A] 5.73 µM

[Q] State its TGI for this compound: COc1cc(-c2nc3ccccc3s2)ccc1OCCCCCOc1cc2c(cc1OC)C(=O)N1CCC[C@H]1C=N2
[A] 1.14 µM

[Q] Tell me measured TGI for O=c1[nH]cnc2c(COCCCO)c[nH]c12 please.
[A] > 100 µM

[Q] Using the record for COc1ccc(N2C(=O)C3CC(c4ccc(C)cc4)c4c([nH]c5ccccc45)C3C2=O)cc1 (stereo not drawn) , state its measured TGI.
[A] 51 µM

[Q] Return TGI for the following compound: CCC12CCCN3CCc4c(n(c5ccccc45)C(O)(C(=O)OC)C1)C32 (stereo not drawn)
[A] > 100 µM
